Where do the numbers come from? From the DeepSol protein solubility set.

# test name: soluble on expression in E. coli; label from the status in PepcDB or PDB records
readout name: soluble on expression in E. coli

MGSDKIHHHHHHMEETFQLLYDTYHQDLYQFLFYMVKDKNQTEDLLQEVYIRVLNSYHTFEGRSSEKTWLLSIARHVAIDWFRKQQTIRQRILGTFDWDTQDVRDQQLLPDELAVQHENVREISCALDQCTIDQRAVIILRFIQGYSIQETAKALRFSESKVKTTQHRGLKVLRKHMELLREELMDDEVRMERRTDKGVVKSTSGS: not soluble
GSHMKNSVSVDLPGSMKVLVSKSSNADGKYDLIATVDALELSGTSDKNNGSGVLEGVKADASKVKLTISDDLGQTTLEVFKSDGSTLVSKKVTRADGTRLEYTGIKSDGSGKAKEVLKGYVLEGTLTAEKTTLVVKEGTVTLSKNISKSGEVSVELNDTDSSAATKKTAAWNSGTSTLTITVNSKKTKDLVFTSSNTITVQQYDSNGTSLEGSAVEITKLDEIKNALK: soluble
AEVPLPQLRAYTVDASWLQPMAPLQIADHTWQIGTEDLTALLVQTPDGAVLLDGGMPQMASHLLDNMKARGVTPRDLRLILLSHAHADHAGPVAELKRRTGAKVAANAESAVLLARGGSDDLHFGDGITYPPANADRIVMDGEVITVGGIVFTAHFMAGHTPGSTAWTWTDTRNGKPVRIAYADSLSAPGYQLQGNPRYPHLIEDYRRSFATVRALPCDVLLTPHPGASNWDYAAGARAGAKALTCKAYADAAEQKFDGQLAKETAGAR: soluble
MGSDKIHHHHHHMTWGFKNRLNTILPDGRAVMLAIDHGYFLGPIHGLEQPLETVKNLLPYTDSLFLTRGVLSSCIPENCSTPMVIRVSGGATVVGKDLANETIVTPVKEAVKQNAIGVGVSVFVGSDYETQTVTNLANVVSEAHDYCLPVLGITAVAKELQKREARFLALASRVCVEMGADIIKTYYCEGFEKITSTCPAPVVIAGGPKLDSIEDALNITYNALQEGAIGVDMGRNIWQSEHPAAMIQAIHGIVKNGLNVKEALQLYEDVKN: not soluble
GDYTTLTFRVSTHIEEAAPTSCPAEHPHTVAQGDYLIVAKSNRMSTGNDELGSILMRAFVNAIGELDRLPSHIILYNTGVLLAVEGTDTAETLAELNKKHGIPIIVCGTCADYYEVKDKLRIGTISNMYRIMQLQVATRHIIYP: not soluble

====

# test name: soluble on expression in E. coli; label from the status in PepcDB or PDB records
readout name: soluble on expression in E. coli

MVQESIISSFRGKLENDPSKSTSLATVETLLEVLDRSRATTVAEFQNELNQVVAALEKTDYSSTSIRSAADLFTRFTSLAPAALLDQEDFSQVLDLYRQRARSFIKNVRGSRAKISKCARLFFTHHMNILTHSYSKVVLETILDAHKSGYHLHVWVTESQPDASGKLVFEELKKNGVPTTLVLDSCVGYVMERIQAVLVGAEGVMETGGIINKIGTVNVCIIAKSRHVPVYVCAETIKFVREFPLNQADIPQEFKYRTSVIERNNLELEHPDVDYTAPEFLTLIITDVGAMKPEAVGEELIKMYI: not soluble
MGSDKIHHHHHHMPSSVCGDPMMCQNCKKSVPNAIFHVYHRRGFHYPAQKCEENFILFLIKGEMLVNSREYAGTMLKAGEFMLQPISSKIEMLAMTDVECIYYQFNQPELFCDIRYNRIMKETDPPLIPSPLPIIPELQHFLESARTYLSEKKICRDLLSLKRKELAFILGYFYSDYDLASLVHPLSKYASSFECFVYQNYKKVKTVEEFAKLGGYSQTTFRRIFDNVFHEPVYEWMLSRRKEEIIYELQNTEATISEICYKFGFESLPHFSNFCKKSFGTSPRSIRLKRSSE: not soluble
MKNAVHFGAGNIGRGFIGKLLADAEVEVTFADVDVPLVDQLSHKQEYKVKVVGTECKIDTVTHVTAVNSASEDVIDRIVKTDLVTTAVGPNVLDIIAKTIAKGIAKRFEAGNDAPLNIIACENMVRGTTHLKGEVYKHLDKSLHAKADELVGFVDSAVDRIVPPAEAANDDPLEVTVESFSEWIVDEQQFKGDIPNIAGMEKTNNLMAFVERKLFTLNTGHCITAYLGCLKGHRTIREAIEDPNIHAEVKQAMQESGEVLIRRYGFDHDMHNAYIEKILGRFANPYLVDEVDRVGRQPIRKLGANDRLVKPLLGTIEYGTENQTLLKGIAAALKYTNDTDPQAVELQTSLKEVGVTKTLAKYTGLAEDSDEVAQIETLYNQL: not soluble
MERGVDNWKVDCKCGTKDDDGERMLACDGCGVWHHTRCIGINNADALPSKFLCFRCIEL: soluble
SSRIGEIKEETTSHLRSCEYKGRPPKAGAEPASEREVS: soluble
MGSDKIHHHHHHMISDSISKRRSIRKYKNQSISHETIEKIIEAGINAPSSKNRQPWRFVVITEKEKESMLKAMSKGIQNEINDNGLLPGSRQHIAGANYTVEIMKQAPVTIFILNILGKSPLEKLSPEERFYEMANMQSIGAAIQNMSLTAVELGLGSLWICDVYFAYRELCEWLNTDSQLVAAISLGYPDEEPSRRPRLQLSDVTEWR: not soluble
MEYGIVYLLTNPVMPGLVKIGMTTQEGIDKRMKELYTTGVPIPFECKFACKVKKSDCLKIEKALHKAFDPQRINQNREFFRINVEQAQAILELFHHEDVTEEVTDEIQNDLTDEDKAASTKAQAKRPPLNFYEMGLQKGDILIWKDDPSISVTVLSERKVCYEGEETSISALSAKLKGYKVKHIQPTPHWFFNDRSLSEIYDETYPFEE: not soluble
MGSDKIHHHHHHMATELKTFTDSQFIGKPVLADIEFIPHLEKINDFAATNGLKIFVTSSARPWGVPVGGAIVSPAKMSNHLIGHAIDMNIQIGGKLYTSNELGDFNSLPPPIKAFITTIRNHPVLRWGGDFGDPVHIDDGLNLHNPNLWKDKFPIIQSELTGLTQPGIRAVNSPRLLFLTTPLMKGDDIKVVQEKLIGKGFDLGITGADGFFGQATANAVIKFQDQEDLDPVDGIVGDKTKKALGL: not soluble
